- System: Mycobacterium tuberculosis
- measurementDescription: Antimycobacterial activity against isoniazid and rifampin-resistant Mycobacterium tuberculosis M11 after 24 hrs by microtiter alamar blue assay
- Assay type: functional
- conditionSet: M11, 24 h
The compounds listed here are annotated with their MIC.
Just the number in µg/mL, nothing appended.

Example entries and their recorded answers appear below.
# value lookup — system Mycobacterium tuberculosis, readout MIC, item COc1cc(/C=C/c2cc(/C=C/c3ccc(OC)c(OC)c3)no2)ccc1O
3.12

# value lookup — system Mycobacterium tuberculosis, readout MIC, item COc1cc(/C=C/c2cc(/C=C/c3ccc(OC)c(OC)c3)on2)ccc1O
12.5

# value lookup — system Mycobacterium tuberculosis, readout MIC, item CCCCCOc1ccc(/C=C/c2cc(/C=C/c3ccc(O)c(OC)c3)no2)cc1OC
6.25

Further cases:
# value lookup — system Mycobacterium tuberculosis, readout MIC, item CCCCCOc1ccc(/C=C/c2cc(/C=C/c3ccc(O)c(OC)c3)on2)cc1OC
3.12

---

- System: Mycobacterium tuberculosis
- measurementDescription: Antimycobacterial activity against isoniazid, rifampin, ethambutol, streptomycin, ofloxacin and ciprofloxacin-resistant Mycobacterium tuberculosis M46 after 24 hrs by microtiter alamar blue assay
- Assay type: functional
- conditionSet: M46, 24 h
measurementName: MIC
# do not omit the unit; it follows the number

Look up MIC for this compound: COc1cc(/C=C/c2cc(/C=C/c3ccc(OC)c(OC)c3)on2)ccc1O
6.25 µg/mL

---

The compounds listed here are annotated with their MIC.
- System: Mycobacterium tuberculosis
- measurementDescription: Antimycobacterial activity against isoniazid, rifampin and ethambutol-resistant Mycobacterium tuberculosis M16 after 24 hrs by microtiter alamar blue assay
- Format: functional
- conditionSet: M16, 24 h
Just the number in µg/mL, nothing appended.

Look up MIC for this compound: COc1cc(/C=C/c2cc(/C=C/c3ccc(OC)c(OC)c3)no2)ccc1O
1.56

Look up MIC for this compound: COc1cc(/C=C/c2cc(/C=C/c3ccc(OC)c(OC)c3)on2)ccc1O
12.5

Look up MIC for this compound: CCCCCOc1ccc(/C=C/c2cc(/C=C/c3ccc(O)c(OC)c3)on2)cc1OC
1.25

We next turn to a different compound, shown below.
Look up MIC for this compound: CCCCCOc1ccc(/C=C/c2cc(/C=C/c3ccc(O)c(OC)c3)no2)cc1OC
1.56

---

- Tested on: Mycobacterium tuberculosis
- measurementDescription: Antimycobacterial activity against isoniazid and rifampin -resistant Mycobacterium tuberculosis M27 after 24 hrs by microtiter alamar blue assay
- Type: functional
- conditionSet: M27, 24 h
measurementName: MIC (µg/mL)
Just the number in µg/mL, nothing appended.

Example entries and their recorded answers appear below.
# value lookup — system Mycobacterium tuberculosis, readout MIC, item CCCCCOc1ccc(/C=C/c2cc(/C=C/c3ccc(O)c(OC)c3)no2)cc1OC
1.56

# value lookup — system Mycobacterium tuberculosis, readout MIC, item CCCCCOc1ccc(/C=C/c2cc(/C=C/c3ccc(O)c(OC)c3)on2)cc1OC
0.39

# value lookup — system Mycobacterium tuberculosis, readout MIC, item COc1cc(/C=C/c2cc(/C=C/c3ccc(OC)c(OC)c3)on2)ccc1O
0.78

We next turn to a different compound, shown below.
# value lookup — system Mycobacterium tuberculosis, readout MIC, item COc1cc(/C=C/c2cc(/C=C/c3ccc(OC)c(OC)c3)no2)ccc1O
0.195

---

The compounds listed here are annotated with their MIC.
- Tested on: Mycobacterium tuberculosis
- measurementDescription: Antimycobacterial activity against isoniazid, rifampin, ethambutol, streptomycin, ofloxacin and ciprofloxacin-resistant Mycobacterium tuberculosis M46 after 24 hrs by microtiter alamar blue assay
- Type: functional
- conditionSet: M46, 24 h
Just the number in µg/mL, nothing appended.

# value lookup — system Mycobacterium tuberculosis, readout MIC, item COc1cc(/C=C/c2cc(/C=C/c3ccc(OC)c(OC)c3)no2)ccc1O
1.56

# value lookup — system Mycobacterium tuberculosis, readout MIC, item CCCCCOc1ccc(/C=C/c2cc(/C=C/c3ccc(O)c(OC)c3)no2)cc1OC
1.56

Further cases:
# value lookup — system Mycobacterium tuberculosis, readout MIC, item CCCCCOc1ccc(/C=C/c2cc(/C=C/c3ccc(O)c(OC)c3)on2)cc1OC
1.56
